Biological target: FLT-3 (Homo sapiens, UniProt P36888)
Construct: 0.02% BSA and 3 nM FLT-3
Sequence (P36888 27-993): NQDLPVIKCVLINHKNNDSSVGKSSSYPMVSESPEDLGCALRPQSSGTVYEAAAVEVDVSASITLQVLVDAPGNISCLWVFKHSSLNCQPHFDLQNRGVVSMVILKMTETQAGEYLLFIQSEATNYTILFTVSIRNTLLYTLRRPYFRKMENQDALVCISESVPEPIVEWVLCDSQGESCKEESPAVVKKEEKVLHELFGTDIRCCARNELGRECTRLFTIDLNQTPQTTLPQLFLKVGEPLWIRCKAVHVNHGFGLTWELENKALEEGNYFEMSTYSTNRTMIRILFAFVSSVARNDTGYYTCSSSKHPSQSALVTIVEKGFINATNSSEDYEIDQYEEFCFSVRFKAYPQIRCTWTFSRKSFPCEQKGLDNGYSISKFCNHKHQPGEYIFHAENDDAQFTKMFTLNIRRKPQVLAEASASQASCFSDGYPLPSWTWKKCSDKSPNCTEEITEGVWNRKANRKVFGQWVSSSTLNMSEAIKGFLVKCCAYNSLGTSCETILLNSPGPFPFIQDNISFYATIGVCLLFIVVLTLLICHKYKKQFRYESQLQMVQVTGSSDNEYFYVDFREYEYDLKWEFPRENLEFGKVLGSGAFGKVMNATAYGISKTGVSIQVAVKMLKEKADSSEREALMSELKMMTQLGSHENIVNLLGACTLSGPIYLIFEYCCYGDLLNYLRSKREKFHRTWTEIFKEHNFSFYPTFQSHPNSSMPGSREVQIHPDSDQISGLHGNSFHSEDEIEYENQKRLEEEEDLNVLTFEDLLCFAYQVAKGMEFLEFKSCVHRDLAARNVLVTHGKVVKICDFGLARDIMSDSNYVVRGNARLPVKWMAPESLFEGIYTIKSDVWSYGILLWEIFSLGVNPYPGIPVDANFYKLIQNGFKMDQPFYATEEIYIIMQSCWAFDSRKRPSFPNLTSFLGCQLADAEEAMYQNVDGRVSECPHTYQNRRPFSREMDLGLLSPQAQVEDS
Assay: Inhibition of FLT-3, radiometric filter-binding assay
Assay type: biochemical
Conditions: 90 μM ATP, pE4Y substrate; read-out: Ki values (FLT-3)
Protocol: Compounds were screened for their ability to inhibit FLT-3 activity using a radiometric filter-binding assay. This assay monitors the ^33P incorporation into a substrate poly(Glu, Tyr) 4:1 (pE4Y). Reactions were carried out in a solution containing 100 mM HEPES (pH 7.5), 10 mM MgCl2, 25 mM NaCl, 1 mM DTT, 0.01% BSA and 2.5% DMSO. […] Two assay solutions were prepared. […] The amount of ^33P incorporation into pE4y was analyzed by a Packard TopCount Microplate Scintillation Counter (Meriden, Conn.). […]
pKi: −log10 of the molar value.

compound	target desc	pKi
CCCNC(=O)Nc1ccc(Nc2ncn(-c3ccnc(N4C[C@@H](C)N(C(C)=O)[C@@H](C)C4)c3)n2)cc1	FLT-3 (Homo sapiens, UniProt P36888)	7.52 to 9.00
CCOC(=O)c1ccc(Nc2ncn(-c3ccnc(N4C[C@@H](C)N(C(C)=O)[C@@H](C)C4)c3)n2)cc1	FLT-3 (Homo sapiens, UniProt P36888)	6.70 to 7.52
CC(C)CCN(C)c1cc(-n2cnc(Nc3ccccc3)n2)ccn1	FLT-3 (Homo sapiens, UniProt P36888)	7.52 to 9.00
COCCN(C)c1cc(-n2cnc(Nc3ccccc3)n2)ccn1	FLT-3 (Homo sapiens, UniProt P36888)	7.52 to 9.00
COc1cc(Nc2ncn(-c3ccccc3)n2)cc(OC)c1OC	FLT-3 (Homo sapiens, UniProt P36888)	7.52 to 9.00
CCOC(=O)c1ccc(Nc2ncn(-c3ccnc(N4CCCN(C(C)=O)CC4)c3)n2)cc1	FLT-3 (Homo sapiens, UniProt P36888)	6.70 to 7.52
CC(=O)N1[C@H](C)CN(c2cc(-n3cnc(Nc4ccc(NC(=O)c5ccco5)cc4)n3)ccn2)C[C@@H]1C	FLT-3 (Homo sapiens, UniProt P36888)	> 7.22
CCOc1cccc(Nc2ncn(-c3ccccc3)n2)c1	FLT-3 (Homo sapiens, UniProt P36888)	7.52 to 9.00
COc1cc(Nc2ncn(-c3ccc(C#N)cc3)n2)cc(OC)c1OC	FLT-3 (Homo sapiens, UniProt P36888)	7.52 to 9.00
CC(=O)N1[C@H](C)CN(c2cc(-n3cnc(Nc4ccc(NC(=O)N(C)C)cc4)n3)ccn2)C[C@@H]1C	FLT-3 (Homo sapiens, UniProt P36888)	> 7.22
CC(C)(C)CC(=O)Nc1cc(-n2cnc(Nc3ccccc3)n2)ccn1	FLT-3 (Homo sapiens, UniProt P36888)	7.52 to 9.00
CCNC(=O)Nc1ccc(Nc2ncn(-c3ccnc(N4C[C@@H](C)N(C(C)=O)[C@@H](C)C4)c3)n2)cc1	FLT-3 (Homo sapiens, UniProt P36888)	7.52 to 9.00
c1ccc(-n2cnc(Nc3ccc4c(c3)OCCO4)n2)cc1	FLT-3 (Homo sapiens, UniProt P36888)	7.52 to 9.00
CC(=O)N1[C@H](C)CN(c2cc(-n3cnc(Nc4ccc(N5CCOCC5)cc4)n3)ccn2)C[C@@H]1C	FLT-3 (Homo sapiens, UniProt P36888)	6.70 to 7.52
c1ccc(Nc2ncn(-c3ccnc(N4CCCCC4)c3)n2)cc1	FLT-3 (Homo sapiens, UniProt P36888)	> 7.22
O=C(Cc1ccccc1)Nc1cc(-n2cnc(Nc3ccccc3)n2)ccn1	FLT-3 (Homo sapiens, UniProt P36888)	7.52 to 9.00
CC(=O)N1CCCN(c2cc(-n3cnc(Nc4ccccc4)n3)ccn2)CC1	FLT-3 (Homo sapiens, UniProt P36888)	> 7.22
CC(=O)N1[C@H](C)CN(c2cc(-n3cnc(Nc4ccc(NC(=O)C(F)(F)F)cc4)n3)ccn2)C[C@@H]1C	FLT-3 (Homo sapiens, UniProt P36888)	> 7.22
CC(=O)N1[C@H](C)CN(c2cc(-n3cnc(Nc4ccc(NC(=O)NC(C)C)cc4)n3)ccn2)C[C@@H]1C	FLT-3 (Homo sapiens, UniProt P36888)	7.52 to 9.00
CN1CCN(c2ccc(Nc3ncn(-c4ccccc4)n3)cn2)CC1	FLT-3 (Homo sapiens, UniProt P36888)	6.70 to 7.52
CCC(=O)N1CCCN(c2cc(-n3cnc(Nc4ccccc4)n3)ccn2)CC1	FLT-3 (Homo sapiens, UniProt P36888)	6.70 to 7.52
CCCC(=O)N1CCCN(c2cc(-n3cnc(Nc4ccccc4)n3)ccn2)CC1	FLT-3 (Homo sapiens, UniProt P36888)	6.70 to 7.52
CCCOC(=O)Nc1ccc(Nc2ncn(-c3ccnc(N4C[C@@H](C)N(C(C)=O)[C@@H](C)C4)c3)n2)cc1	FLT-3 (Homo sapiens, UniProt P36888)	6.70 to 7.52
CC(=O)N1[C@H](C)CN(c2cc(-n3cnc(Nc4ccc(NC(=O)OC(C)C)cc4)n3)ccn2)C[C@@H]1C	FLT-3 (Homo sapiens, UniProt P36888)	6.70 to 7.52
O=c1[nH]c2ccccc2n1C1CCN(c2cc(-n3cnc(Nc4ccccc4)n3)ccn2)CC1	FLT-3 (Homo sapiens, UniProt P36888)	< 6.70
CC1CCCN1c1cc(-n2cnc(Nc3ccccc3)n2)ccn1 (centres unmarked)	FLT-3 (Homo sapiens, UniProt P36888)	7.52 to 9.00
O=C(C1CCCO1)N1CCN(c2cc(-n3cnc(Nc4ccccc4)n3)ccn2)CC1 (centres unmarked)	FLT-3 (Homo sapiens, UniProt P36888)	< 6.70
CC(=O)N1[C@H](C)CN(c2cc(-n3cnc(Nc4ccc(N5CCN(S(=O)(=O)c6ccc(C)cc6)CC5)cc4)n3)ccn2)C[C@@H]1C	FLT-3 (Homo sapiens, UniProt P36888)	6.70 to 7.52
CC(=O)N1[C@H](C)CN(c2cc(-n3cnc(Nc4ccc(N)cc4)n3)ccn2)C[C@@H]1C	FLT-3 (Homo sapiens, UniProt P36888)	> 7.22
COCC(=O)N1CCCN(c2cc(-n3cnc(Nc4ccccc4)n3)ccn2)CC1	FLT-3 (Homo sapiens, UniProt P36888)	6.70 to 7.52
CCCN(CCO)c1cc(-n2cnc(Nc3ccccc3)n2)ccn1	FLT-3 (Homo sapiens, UniProt P36888)	7.52 to 9.00
c1ccc(Nc2ncn(-c3ccnc(NC4CCCCC4)c3)n2)cc1	FLT-3 (Homo sapiens, UniProt P36888)	7.52 to 9.00

====

Recorded pKi values for a group of compounds are listed next.
Target: human Src kinase (Homo sapiens)
Construct: 25 nM of recombinant human Src kinase
Sequence (P12931 whole entry): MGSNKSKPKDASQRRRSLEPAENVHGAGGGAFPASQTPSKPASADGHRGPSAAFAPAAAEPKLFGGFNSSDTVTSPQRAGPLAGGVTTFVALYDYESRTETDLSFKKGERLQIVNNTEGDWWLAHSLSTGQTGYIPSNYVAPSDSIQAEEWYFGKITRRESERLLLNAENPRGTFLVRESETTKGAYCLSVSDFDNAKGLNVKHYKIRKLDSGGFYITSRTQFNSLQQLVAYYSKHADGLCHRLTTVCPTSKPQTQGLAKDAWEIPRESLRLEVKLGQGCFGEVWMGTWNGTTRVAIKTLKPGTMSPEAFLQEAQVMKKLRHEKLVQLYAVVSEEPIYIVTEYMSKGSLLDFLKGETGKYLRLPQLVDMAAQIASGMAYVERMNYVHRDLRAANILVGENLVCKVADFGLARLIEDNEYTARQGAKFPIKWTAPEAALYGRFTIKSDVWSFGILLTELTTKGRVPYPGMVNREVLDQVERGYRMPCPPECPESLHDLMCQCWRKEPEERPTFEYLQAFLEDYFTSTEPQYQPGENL
Test: Src inhibition assay B: spectrophotometric (uv-vis) coupled enzyme assay
Settings: 100 μM ATP
pKi: −log10 of the molar value.
quantity name: pKi

compound string	value measured
CC(=O)N1[C@H](C)CN(c2cc(-n3cnc(Nc4ccc(NC(=O)NC(C)C)cc4)n3)ccn2)C[C@@H]1C	> 6.30
c1ccc(Nc2ncn(-c3cc(N[C@H]4CCCNC4)ncn3)n2)cc1	> 6.30
CN1CCN(c2ccc(Nc3ncn(-c4ccccc4)n3)cn2)CC1	< 6.00
CCOC(=O)c1ccc(Nc2ncn(-c3ccnc(N4CCCN(C(C)=O)CC4)c3)n2)cc1	< 6.00
c1ccc(-n2cnc(Nc3ccc(N4CCOCC4)nc3)n2)cc1	< 6.00
O=c1[nH]c2ccccc2n1C1CCN(c2cc(-n3cnc(Nc4ccccc4)n3)ccn2)CC1	< 6.00
c1ccc(Nc2ncn(-c3ccnc(N4CCCCC4)c3)n2)cc1	> 6.30
CN(Cc1ccccc1)c1cc(-n2cnc(Nc3ccccc3)n2)ccn1	6.00 to 6.30

The measured values listed here are drawn from patent US7598245B2.
